Data provenance is patent US20220112288A1.

Each entry below lists one item and its recorded Cell Binding to Human PanT Signal/Background (of CD4 negative population) value.
system tested: T1, human CD8 on human pan T cells (CD4-negative population) (human, UniProt P01732 22-235; P10966 22-210)
T1 construct: whole, on cells; Target is CD8 as it stands on primary human pan T cells
T1 sequence (P01732 22-235, chain 1 of 2): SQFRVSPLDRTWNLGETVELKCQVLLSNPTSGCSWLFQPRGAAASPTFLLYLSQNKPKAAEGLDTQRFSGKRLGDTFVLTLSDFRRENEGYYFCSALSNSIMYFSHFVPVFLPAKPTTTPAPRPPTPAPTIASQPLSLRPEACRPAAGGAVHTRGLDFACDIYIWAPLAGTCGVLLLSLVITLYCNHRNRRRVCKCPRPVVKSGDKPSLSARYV
T1 sequence (P10966 22-210, chain 2 of 2): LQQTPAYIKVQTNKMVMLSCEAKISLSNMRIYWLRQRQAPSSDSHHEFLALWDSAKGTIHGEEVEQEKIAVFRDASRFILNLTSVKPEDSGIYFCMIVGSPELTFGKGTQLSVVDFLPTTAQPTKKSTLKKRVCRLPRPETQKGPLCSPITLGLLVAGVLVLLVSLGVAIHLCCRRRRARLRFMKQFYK
measurement notes: flow cytometry, 20 nM antibody on human pan T cells, A647 anti-human IgG Fc; geomean ratio in CD4-negative population
Numbers only; they are read as signal/background.

For orientation, consider the following solved cases.
Query: Look up and report measured Cell Binding to Human PanT Signal/Background (of CD4 negative population) for this entry: CD8B254 (antibody, human IgG1, kappa, V domains shown, Full-length human IgG1, kappa) VH: EVQLQQSGAELVKPGASVKMSCKTSGYTFSSYWITWVKQRPGQGLEWVGDIYPGSGSTNYNEKFKSKAALTVDTSSSTAFMQLNSLTSEDSAVYYCARESITTRITPFDHWGQGTTLTVSS VL: DVVMTQTPLSLPVSLGDQASISCRSSQSLVHSSGNTYLHWYLQKPGQSPKLLIYKGSNRFSGVSDRFSGSGSGTDFTLKISRVEAEDLGVYFCSQSTHVPFTFGSGTKLEIKR
Result: 23

Query: Look up and report measured Cell Binding to Human PanT Signal/Background (of CD4 negative population) for this entry: CD8B362 (antibody, human IgG1, kappa, V domains shown, Full-length human IgG1, kappa) VH: EVKLVESGAELVKPGASVKLSCTASGFNIKDTYMHWVKQRPEQGLEWIGRIDPANGHTKFDPKFQGKATITADTSSNTAYLQLSSLTSEDTAVYYCAIRFAYWGQGTLVTVSA VL: DIQMTQSPSSLSASLGDRVSLTCRASHEISGYLSWLQQKPDGTFKRLIYAASTLDSGVPKRFSGSRSGSDYSLSISSLESEDFADYYCLQYSSYPYTFGSGTKLEMKR
Result: 4

Turning now to a further record.
Query: Look up and report measured Cell Binding to Human PanT Signal/Background (of CD4 negative population) for this entry: CD8B186 (antibody, human IgG1, kappa, V domains shown, Full-length human IgG1, kappa) VH: QVQLQQSGAELAKPGASVKMSCKASGYIFTSYWMHWVKQRPGQGLEWIGNINPSSGYAVYNQKFKDKATLTADQSSSTAYIQLNSLTSEDSAVYYCARRVFYGDSWFAYWGQGTSVTVSS VL: DVQMIQSPASLSASVGETVTITCRASGNIHNYLAWYQQKQGKSPQLLVYNAKTLADGVPSRFSGSGSGTQYSLKINSLQPEDFGSYYCQHFWSTTWTFGGGTKLEIKR
Result: 36
